# GI50 per entry
# Tested on: SW-620
# METHOD NOTES: NCI tumour cell line growth inhibition, 48 h
Active and inactive are the calls of the source. Cut-off read from the data, not from the text of the source: active = GI50 up to about 1.1 µM and inactive = higher.

COc1ccc2nc(NC(=O)C(=O)NNC(=O)c3ccncc3)sc2c1 :: > 100 µM (inactive)
O=c1c(Cl)cc2nc3ccccc3sc-2c1Cl :: 12.5 µM (inactive)
O=C(NCCCCCN1CCC2(CCCCC2)CC1)C(C1CCCCC1)C1CCCCC1 :: 2.6 µM (inactive)
COC(=O)C(Cc1nc2ccccc2nc1O)C(=O)C(=O)Nc1ccc(OC)cc1[N+](=O)[O-] (stereo not given) :: > 100 µM (inactive)
C[C@@H]1CC[C@@H]2[C@@H](C1)O[C@@H]([C@H](C)OCc1ccccc1)SC2(C)C :: 18.9 µM (inactive)

Continue with the next compound.
Incoming: Item under review: `CCOC(=O)c1cc(C#N)[nH]c1-c1ccsc1` . Reported GI50?
Outgoing: 31.3 µM (inactive)

###

# Tested on: EKVX
# METHOD NOTES: NCI tumour cell line growth inhibition, 48 h
The source made the active and inactive calls. Cut-off read from the data, not from the text of the source: active = GI50 up to about 1.1 µM and inactive = higher.
# GI50 per entry

Record excerpt, results attached:
Oc1cc(-c2cccs2)nc2cc3c(cc12)OCO3 :: > 62.7 µM (inactive)
CC1(C)CC2=C(Sc3ccccc3N2)C(=O)C1C(=O)C(=O)Nc1cc(Cl)ccc1Cl (stereo not given) :: > 100 µM (inactive)
Cc1cc(N(CCC#N)CCC#N)ccc1/N=N/c1ccccc1[N+](=O)[O-] :: > 100 µM (inactive)
COc1cc(C(=O)N2CCc3c([nH]c4c([N+](=O)[O-])c(OC)ccc34)C2C)cc(OC)c1OC (stereo not given) :: > 100 µM (inactive)

Continue with the next compound.
Incoming: Item under review: `Cc1c(Br)c(Br)c(C)[s+]1[O-]` . Reported GI50?
Outgoing: 15.1 µM (inactive)

###

# System: ACHN
# METHOD NOTES: NCI tumour cell line growth inhibition, 48 h
Calls of active or inactive are those of the source. Rule as the data show it: active = GI50 up to about 1.1 µM and inactive = higher.
MEASURED METRIC: GI50

CC(=O)Oc1ccc2c3c1O[C@H]1[C@H](O)CC[C@@]4(O)[C@@H](C2)N(C)CC[C@]314 :: > 100 µM (inactive)

Continue with the next molecule.
Incoming: Item under review: O=C1c2ccccc2NC1(c1ccccc1)c1c(-c2ccccc2)[nH]c2ccccc12 (stereo not drawn) . Reported GI50?
Outgoing: 9.25 µM (inactive)

###

# System: CCRF-CEM
# METHOD NOTES: NCI tumour cell line growth inhibition, 48 h
The source made the active and inactive calls. No stated cut-off is given here; in the data, active = GI50 up to about 1.1 µM and inactive = higher.
MEASURED METRIC: GI50

Record excerpt, results attached:
CCOC(=O)C(=O)Nc1ccc(Cl)c(C(F)(F)F)c1 :: > 100 µM (inactive)
CC(=O)OC1=C2CC[C@@H]3C(CC[C@@]4(C)C3CC[C@@H]4OC(C)=O)[C@@]2(C)CC(C#N)C1=O (stereo partly drawn) :: 20.2 µM (inactive)
O=C(C(Cl)=C(N1CCOCC1)N1CCOCC1)C(Cl)Cl :: 56.9 µM (inactive)
Cn1/c(=N\N=C(\CNCCO)[C@@H](O)[C@@H]2OC(c3ccccc3)OC[C@H]2O)sc2ccccc21 (stereo partly drawn) :: 17.8 µM (inactive)
CCOC(=O)CC1(c2cccc3ccccc23)OC(=O)c2ccccc21 (stereo not drawn) :: 43.1 µM (inactive)

Incoming: Given the entry `O=C1NC(=S)NC(=O)C1C(c1ccc(O)cc1)C1C(=O)NC(=S)NC1=O.c1ccncc1` , what GI50 was observed with CCRF-CEM?
Outgoing: > 100 µM (inactive)

Incoming: Item: CCC[C@H](C)[C@H]1NC(=O)[C@@H](NC(=O)[C@@H](CC(C)C)N(C)C(=O)C2CCCN2C(=O)[C@H](C)O)[C@@H](C)OC(=O)[C@H](CC(C)C)N(C)C(=O)[C@@H]2CCCN2C(=O)[C@H](CC(C)C)NC(=O)[C@@H](C)C(=O)[C@H](C(C)C)OC(=O)C[C@@H]1O (stereo partly drawn)
Outgoing: < 0.0025 µM (active)

Incoming: Item: `Nc1ccccc1OCCCOc1ccccc1N`
Outgoing: > 100 µM (inactive)

###

# GI50 per entry
# Tested on: HCT-116
# METHOD NOTES: NCI tumour cell line growth inhibition, 48 h
Activity calls are given as the source filed them. Cut-off read from the data, not from the text of the source: active = GI50 up to about 1.1 µM and inactive = higher.

Record excerpt, results attached:
O=c1[nH]nc(Cc2ccccc2)n1/N=C/c1c[nH]c2ccccc12 :: > 100 µM (inactive)
CCOC(=O)C1C(c2ccc3c(c2)OCO3)c2c(n[nH]c2O)CC1(C)O (stereo unspecified) :: > 100 µM (inactive)
C=C(c1ccccc1)c1ccccc1-c1cc(-c2ccccc2)cc(-c2ccccc2)n1 :: 65.8 µM (inactive)

Incoming: Item under review: `COC(=O)c1nc2c(C)c(O)c(O)c([C@H](C)CCC=C(C)C)c2o1` . Reported GI50?
Outgoing: 8.34 µM (inactive)

Incoming: Item: `Nc1nc(SCCc2ccccc2)nc2nc3c(c(-c4ccccc4)c12)CCCC3`
Outgoing: > 10 µM (inactive)

Incoming: Item: `CC(C)(C)c1cc(COc2c3sc(=S)sc3c(OCc3cc(C(C)(C)C)cc(C(C)(C)C)c3)c3sc(=S)sc23)cc(C(C)(C)C)c1`
Outgoing: > 100 µM (inactive)

Incoming: Item: `Cc1c(Br)c(Br)c(C)[s+]1[O-]`
Outgoing: 6 µM (inactive)

###

# System: MCF7
# METHOD NOTES: NCI tumour cell line growth inhibition, 48 h
Calls of active or inactive are those of the source. No stated cut-off is given here; in the data, active = GI50 up to about 1.1 µM and inactive = higher.
Lab note: assign the record to one of yes (active), no (inactive)

Incoming: Name the outcome recorded for Cc1cc(O)c2c(c1)C(C1c3cccc(O)c3C(=O)c3c(O)cc(C)cc31)c1cccc(O)c1C2=O (centres undefined) in the assay.
Outgoing: yes

Incoming: Item: `O=c1[nH]nc(Cc2ccccc2)n1/N=C/c1c[nH]c2ccccc12`
Outgoing: no

###

# System: OVCAR-3
# METHOD NOTES: NCI tumour cell line growth inhibition, 48 h
Calls of active or inactive are those of the source. Cut-off read from the data, not from the text of the source: active = GI50 up to about 1.1 µM and inactive = higher.
MEASURED METRIC: GI50

Record excerpt, results attached:
O=P(O)(O)OC1O[C@H](CO)[C@H](O)[C@H](O)[C@H]1O (stereo partly drawn) :: > 100 µM (inactive)
O=C(Nc1ccccc1)OCCN=c1c2ccccc2ccc2ccccc12 :: 17.5 µM (inactive)
C=C[C@]1(C)CCC2=C(CCC3C2(C)CCC[C@@]3(C)COC(C)=O)C1 (stereo partly drawn) :: 17.7 µM (inactive)

Continue with the next compound.
Incoming: Item under review: COc1ccc2c(c1)CC[C@@H]1C2CC[C@]2(C)C(=O)N(C)C(=O)CC12 (stereo partly drawn) . Reported GI50?
Outgoing: > 100 µM (inactive)

###

# System: Hs-578T
# METHOD NOTES: NCI tumour cell line growth inhibition, 48 h
Active and inactive are the calls of the source. No stated cut-off is given here; in the data, active = GI50 up to about 1.1 µM and inactive = higher. Where a SMILES comes first, the peptide text is derived from it. The star is where a group is joined. Boc = CC(C)(C)OC(=O)*; OBn = c1ccc(CO*)cc1
MEASURED METRIC: GI50

Record excerpt, results attached:
CC(NC(=O)C(Cc1ccccc1)NC(=O)C(Cc1ccccc1)NC(=O)OC(C)(C)C)C(=O)OCc1ccccc1 (stereo not drawn) (Boc-Phe-Phe-Ala-OBn; configuration not given here) :: 73.3 µM (inactive)
CC1(C)CC2=C(Sc3ccccc3N2)C(=O)C1C(=O)C(=O)Nc1cc(Cl)ccc1Cl (stereo not drawn) :: > 100 µM (inactive)

Continue with the next molecule.
Incoming: Item under review: `C[C@H]1[C@H](C)CC[C@]2(C)CC[C@]3(C)C(=C[C@@H](O)[C@@H]4[C@@]5(C)[C@H](O)[C@@H](O)[C@H](O)C(C)(C)[C@@H]5CC[C@]43C)[C@H]12` . Reported GI50?
Outgoing: > 100 µM (inactive)

###

# Test system: HCT-116
# METHOD NOTES: NCI tumour cell line growth inhibition, 48 h
Calls of active or inactive are those of the source. No stated cut-off is given here; in the data, active = GI50 up to about 1.1 µM and inactive = higher.
Lab note: assign the record to one of 1.0 (active), 0.0 (inactive)

CCOC(=O)N[C@@H]1C2CC(=O)C(O2)[C@@H]1OC (stereo partly drawn) :: 0.0
COc1ccc(/C(=N/N=c2\[nH]c3ccccc3n2Cc2ccccc2)C(=O)O)cc1 :: 0.0
C1CSCC2(COC2)CSCCSCC2(COC2)CS1 :: 0.0

--- query ---
Incoming: Name the outcome recorded for `O=[N+]([O-])/C(C(Cl)=C(Cl)Cl)=C1\Nc2ccccc2O1` in the assay.
Outgoing: 0.0

###

# System: SF-295
# METHOD NOTES: NCI tumour cell line growth inhibition, 48 h
The source made the active and inactive calls. Rule as the data show it: active = GI50 up to about 1.1 µM and inactive = higher.
MEASURED METRIC: GI50

COc1ccc(/C=C(\C#N)c2nc3ccccc3c(=O)[nH]2)cc1 :: 20.5 µM (inactive)

Incoming: Given the entry `CN(C)C(=S)/N=c1\ssc(=S)n1Cc1cccs1` , what GI50 was observed with SF-295?
Outgoing: 1.93 µM (inactive)

Incoming: Item: CC(C)c1ccc(/C=C2\CSCC3=C2N=C(S)NC3c2ccc(C(C)C)cc2)cc1 (stereo not given)
Outgoing: 75.9 µM (inactive)

Incoming: Item: `Brc1cccc(/C=C/CN2CCN(CCOC(c3ccccc3)c3ccccc3)CC2)c1`
Outgoing: 17.6 µM (inactive)

Incoming: Item: `CC(C)(C)OC(=O)/C=C/C(=O)O/C=C/[N+](=O)[O-]`
Outgoing: > 100 µM (inactive)

Incoming: Item: C[C@]12CCC[C@H](Cl)C1(O)C[C@H](C(=O)O)CC2 (stereo not given in full)
Outgoing: > 100 µM (inactive)

Incoming: Item: `Cc1cccc2c1c(=O)c1c(O)cc(O)cc1n2C`
Outgoing: 89.1 µM (inactive)

Incoming: Item: CS(=O)(=O)N1CC(CCl)c2ccc(NO)cc21 (stereo not given)
Outgoing: 20 µM (inactive)

Incoming: Item: `COCCOCc1nc(C#N)c(N)o1`
Outgoing: > 100 µM (inactive)

Incoming: Item: `CC1(C)O[C@@H](CP(c2ccccc2)c2ccccc2)[C@H](CP(c2ccccc2)c2ccccc2)O1`
Outgoing: 5.62 µM (inactive)

Incoming: Item: CC(C)=CC1C(COC(=O)c2ccccc2Cl)C1(C)C (stereo not given)
Outgoing: 35.5 µM (inactive)

Incoming: Item: C/C(CC(O)(/C=N/O)c1ccccc1)=N/O (stereo not given)
Outgoing: > 100 µM (inactive)

Incoming: Item: COC(=O)C(=O)C1CCCCC(C2=NC3NN=C(N)N3C2=O)C1=O (stereo not given)
Outgoing: > 100 µM (inactive)

Incoming: Item: `Nc1cc(F)ccc1CC(=O)O`
Outgoing: > 100 µM (inactive)

Incoming: Item: `CC1(C)C(=O)/C(=C/c2ccccc2)C(C)(C)C1(C)C`
Outgoing: > 100 µM (inactive)

Incoming: Item: `CC(=N\N=C\c1ccccn1)/C(C)=N/N=C(C)/C(C)=N/N=C/c1ccccn1`
Outgoing: > 100 µM (inactive)

Incoming: Item: `CC(=O)c1c(C)cn(S(=O)(=O)NC(=O)Nc2nncs2)c1C`
Outgoing: > 100 µM (inactive)

Incoming: Item: `Cn1c(=O)c2nc(CSCc3ccccc3)[nH]c2n(C)c1=O`
Outgoing: 85.7 µM (inactive)

Incoming: Item: `O=C1NC(=S)NC(=O)C1C(c1ccc(O)cc1)C1C(=O)NC(=S)NC1=O.c1ccncc1`
Outgoing: > 100 µM (inactive)

Incoming: Item: O=S1(=O)c2ccccc2NC(=S)CC1c1ccccc1 (stereo not given)
Outgoing: 26.3 µM (inactive)
